Test: Pharmacokinetic characterisation in Beagle dogs, single s.c. injection, dose range (Example 6)
Format: in vivo
Conditions: male, plasma, 20 ug/kg, dog, SC
From the text: The dosing vehicle was PBS buffer, pH 7.
parameterMeasured: AUC (µM·h)
Reply numerically in µM·h, unit not repeated.

Please look up its AUC: CC[C@H](C)[C@@H]1NC(=O)[C@H](CC(=O)O)NC(=O)[C@H](CC(C)C)NC(=O)c2ccc(-c3ccc(N4CCN(C(=O)c5ccccc5-c5ccccc5C(=O)N5CCN(c6ccc(-c7ccc8cc7CNC(=O)[C@@H]7CCCN7[C@H](C(=O)NC(C)(C)C)[C@H](C)NC(=O)[C@H]([C@@H](C)CC)NC(=O)[C@H](CC(=O)O)NC(=O)[C@H](CC(C)C)NC8=O)cc6)CC5)CC4)cc3)c(c2)CNC(=O)[C@@H]2CCCN2[C@H](C(=O)NC(C)(C)C)[C@H](C)NC1=O 5.68

====

Assay: Pharmacokinetic characterisation in Beagle dogs, single s.c. injection, dose range (Example 6)
Type: in vivo
Settings: male, plasma, 200 ug/kg, dog, SC
Excerpt: The dosing vehicle was PBS buffer, pH 7.
parameterMeasured: AUC (µM·h)
Reply numerically in µM·h, unit not repeated.

Please look up its AUC: CC[C@H](C)[C@@H]1NC(=O)[C@H](CC(=O)O)NC(=O)[C@H](CC(C)C)NC(=O)c2ccc(-c3ccc(N4CCN(C(=O)c5ccccc5-c5ccccc5C(=O)N5CCN(c6ccc(-c7ccc8cc7CNC(=O)[C@@H]7CCCN7[C@H](C(=O)NC(C)(C)C)[C@H](C)NC(=O)[C@H]([C@@H](C)CC)NC(=O)[C@H](CC(=O)O)NC(=O)[C@H](CC(C)C)NC8=O)cc6)CC5)CC4)cc3)c(c2)CNC(=O)[C@@H]2CCCN2[C@H](C(=O)NC(C)(C)C)[C@H](C)NC1=O [Compound 1] 72.5

====

Assay: Pharmacokinetic characterisation in Beagle dogs, single s.c. injection, dose range (Example 6)
Type: in vivo
Details: male, plasma, 400 ug/kg, dog, SC
Source text: The dosing vehicle was PBS buffer, pH 7.
parameterMeasured: AUC (µM·h)
Reply numerically in µM·h, unit not repeated.

Please look up its AUC: CC[C@H](C)[C@@H]1NC(=O)[C@H](CC(=O)O)NC(=O)[C@H](CC(C)C)NC(=O)c2ccc(-c3ccc(N4CCN(C(=O)c5ccccc5-c5ccccc5C(=O)N5CCN(c6ccc(-c7ccc8cc7CNC(=O)[C@@H]7CCCN7[C@H](C(=O)NC(C)(C)C)[C@H](C)NC(=O)[C@H]([C@@H](C)CC)NC(=O)[C@H](CC(=O)O)NC(=O)[C@H](CC(C)C)NC8=O)cc6)CC5)CC4)cc3)c(c2)CNC(=O)[C@@H]2CCCN2[C@H](C(=O)NC(C)(C)C)[C@H](C)NC1=O 158

====

Assay: Pharmacokinetic characterisation in Beagle dogs, single s.c. injection, dose range (Example 6)
Format: in vivo
Conditions: male, plasma, 10 ug/kg, dog, SC
parameterMeasured: AUC (µM·h)
Reply numerically in µM·h, unit not repeated.

Please look up its AUC: CC[C@H](C)[C@@H]1NC(=O)[C@H](CC(=O)O)NC(=O)[C@H](CC(C)C)NC(=O)c2ccc(-c3ccc(N4CCN(C(=O)c5ccccc5-c5ccccc5C(=O)N5CCN(c6ccc(-c7ccc8cc7CNC(=O)[C@@H]7CCCN7[C@H](C(=O)NC(C)(C)C)[C@H](C)NC(=O)[C@H]([C@@H](C)CC)NC(=O)[C@H](CC(=O)O)NC(=O)[C@H](CC(C)C)NC8=O)cc6)CC5)CC4)cc3)c(c2)CNC(=O)[C@@H]2CCCN2[C@H](C(=O)NC(C)(C)C)[C@H](C)NC1=O [Compound 1] 2.46

Data provenance: patent US20250057912A1
